Tested on: NCI-H1975
protocol-text: Antiproliferative activity against human NCI-H1975 cells assessed as cell growth inhibition incubated for 72 hrs by Cell-TiterGlo assay
Format: functional
Each entry below carries its recorded log10(GI50).
Please be aware that the numbers have been log10-transformed from GI50 in µM.

C[C@H](C(=O)Nc1cccc(-c2csc3cnc(Nc4cn(C)nc4C(F)(F)F)nc23)c1)N1CCN(C)CC1 | 0.87
COc1nn(C)cc1Nc1ncc2scc(-c3cccc(NC(=O)[C@@H](C)N4CCNCC4)c3)c2n1 | 0.63
COc1n[nH]cc1Nc1ncc2scc(-c3cccc(NC(=O)[C@@H](C)N4CCN(C)CC4)c3)c2n1 | 1.22
COc1ncccc1Nc1ncc2scc(-c3cccc(NC(=O)[C@@H](C)N4CCN(C)CC4)c3)c2n1 | 1.02
COc1nn(C)cc1Nc1ncc2scc(-c3cccc(NC(=O)[C@@H](C)N4CCN(C)CC4)c3)c2n1 | 0.39
Cc1ccnc(C)c1Nc1ncc2scc(-c3cccc(NC(=O)[C@@H](C)N4CCN(C)CC4)c3)c2n1 | 1.46

(Q) Look up log10(GI50) with NCI-H1975 for this compound: `COc1nn(CCO)cc1Nc1ncc2scc(-c3cccc(NC(=O)[C@@H](C)N4CCN(C)CC4)c3)c2n1`
(A) 1.02

(Q) Then this compound: `COc1nn(C)cc1Nc1ncc2scc(-c3cccc(NC(=O)[C@@H](C)N4CCN(C(C)=O)CC4)c3)c2n1`
(A) 1.37

(Q) Then this compound: `C=CC(=O)N1CCN([C@H](C)C(=O)Nc2cccc(-c3csc4cnc(Nc5cn(C)nc5OC)nc34)c2)CC1`
(A) 1.13

(Q) Then this compound: `COc1nn(C)cc1Nc1ncc2scc(-c3cccc(NC(=O)[C@@H](C)N4CCN(CCO)CC4)c3)c2n1`
(A) 0.82

(Q) Then this compound: COc1nn(C)cc1Nc1nccc(-c2c[nH]c3c(NC(=O)[C@@H](C)N4CCN(C)CC4)cccc23)n1 [GOLIDOCITINIB]
(A) 1.56

(Q) Then this compound: `Cc1cc(Nc2ncc3scc(-c4cccc(NC(=O)[C@@H](C)N5CCN(C)CC5)c4)c3n2)n(C)n1`
(A) 0.87

(Q) Then this compound: `COc1nn(C)cc1Nc1ncc2scc(-c3cccc(NC(=O)[C@@H](C)N4CCN(S(C)(=O)=O)CC4)c3)c2n1`
(A) 1.31

(Q) Then this compound: `COc1nn(C)cc1Nc1ncc2scc(-c3cccc(NC(=O)[C@@H]4CCCN4)c3)c2n1`
(A) 0.95

(Q) Then this compound: `C[C@H](C(=O)Nc1cccc(-c2csc3cnc(Nc4nnn(C)n4)nc23)c1)N1CCN(C)CC1`
(A) 1.45

* * *

tested-target: Tyrosine-protein kinase JAK3 (Homo sapiens, UniProt P52333)
Sequence (P52333 whole entry): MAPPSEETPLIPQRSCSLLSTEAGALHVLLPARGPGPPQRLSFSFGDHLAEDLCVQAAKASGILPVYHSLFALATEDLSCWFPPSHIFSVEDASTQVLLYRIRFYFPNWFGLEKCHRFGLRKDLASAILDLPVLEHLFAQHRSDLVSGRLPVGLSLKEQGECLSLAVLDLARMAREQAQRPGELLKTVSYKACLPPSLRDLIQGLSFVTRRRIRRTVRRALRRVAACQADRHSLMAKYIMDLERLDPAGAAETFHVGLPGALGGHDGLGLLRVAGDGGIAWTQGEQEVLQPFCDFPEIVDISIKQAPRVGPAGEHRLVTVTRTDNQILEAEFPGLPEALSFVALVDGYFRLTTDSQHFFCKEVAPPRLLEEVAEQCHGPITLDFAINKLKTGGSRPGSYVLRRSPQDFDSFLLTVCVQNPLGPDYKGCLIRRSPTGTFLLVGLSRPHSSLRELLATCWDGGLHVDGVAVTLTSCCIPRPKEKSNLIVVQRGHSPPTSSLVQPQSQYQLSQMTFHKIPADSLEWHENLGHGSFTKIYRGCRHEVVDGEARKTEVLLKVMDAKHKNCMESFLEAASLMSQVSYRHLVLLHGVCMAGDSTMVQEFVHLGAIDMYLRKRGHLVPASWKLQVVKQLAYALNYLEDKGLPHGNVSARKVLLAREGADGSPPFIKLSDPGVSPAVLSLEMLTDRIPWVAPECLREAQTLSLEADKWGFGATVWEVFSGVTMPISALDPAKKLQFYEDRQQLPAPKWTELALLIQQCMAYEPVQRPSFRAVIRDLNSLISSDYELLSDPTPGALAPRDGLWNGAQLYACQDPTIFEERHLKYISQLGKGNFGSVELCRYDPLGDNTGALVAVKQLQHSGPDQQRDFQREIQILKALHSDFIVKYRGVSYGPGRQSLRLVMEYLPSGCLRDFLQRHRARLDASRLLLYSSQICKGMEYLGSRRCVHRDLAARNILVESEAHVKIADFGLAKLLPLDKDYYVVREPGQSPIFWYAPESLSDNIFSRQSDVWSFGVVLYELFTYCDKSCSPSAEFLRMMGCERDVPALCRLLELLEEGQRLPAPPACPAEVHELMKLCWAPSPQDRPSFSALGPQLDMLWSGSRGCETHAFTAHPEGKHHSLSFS
protocol-text: Inhibition of N-terminal GST-tagged human recombinant JAK3 (781 to end residues) extracted from baculovirus infected in Sf9 cells using Poly(4:1 Glu, Tyr) as substrate preincubated for 15 min followed by substrate addition and measured after 1 hr by ADP-Glo kinase assay
measured-endpoint: IC50 (nM)
Reply numerically in nM, unit not repeated.

COc1nn(C)cc1Nc1ncc2scc(-c3cccc(N)c3)c2n1 | 68

(Q) Item `COc1nn(C)cc1Nc1ncc2scc(-c3cccc(NC(=O)[C@@H](C)N4CCN(CCO)CC4)c3)c2n1` has what recorded IC50?
(A) 1600

(Q) Then this compound: `COc1nn(C)cc1Nc1ncc2scc(-c3cccc(NC(=O)[C@H]4CCCN4)c3)c2n1`
(A) 69

(Q) Then this compound: COc1nn(C)cc1Nc1nccc(-c2c[nH]c3c(NC(=O)[C@@H](C)N4CCN(C)CC4)cccc23)n1 [GOLIDOCITINIB]
(A) 1920

* * *

Each entry below carries its recorded GI50.
Test system: NCI-H1975
protocol-text: Antiproliferative activity against human NCI-H1975 cells assessed as cell growth inhibition incubated for 72 hrs by Cell-TiterGlo assay
Assay type: functional

Some solved cases for reference:
COc1nn(C)cc1Nc1ncc2scc(-c3cccc(NC(=O)[C@@H](C)N4CCN(C(=O)CC#N)CC4)c3)c2n1 | 40.3 µM
Cc1ccc(Nc2ncc3scc(-c4cccc(NC(=O)[C@@H](C)N5CCN(C)CC5)c4)c3n2)cn1 | 9.18 µM
C=CC(=O)N1C[C@H](Nc2ncnc3[nH]ccc23)CC[C@@H]1C | > 50 µM
Cc1ccc(Nc2ncc3scc(-c4cccc(NC(=O)[C@@H](C)N5CCN(C)CC5)c4)c3n2)c(C)n1 | 27.2 µM
Cc1ncccc1Nc1ncc2scc(-c3cccc(NC(=O)[C@@H](C)N4CCN(C)CC4)c3)c2n1 | 23.1 µM
COc1nn(C)cc1Nc1ncc2scc(-c3cccc(NC(=O)[C@H]4CCCN4)c3)c2n1 | 5.26 µM

(Q) Look up GI50 with NCI-H1975 for this compound: `C[C@H](C(=O)Nc1cccc(-c2csc3cnc(Nc4cccc(S(C)(=O)=O)c4F)nc23)c1)N1CCN(C)CC1`
(A) 12.6 µM

(Q) Then this compound: `COc1nn(C)cc1Nc1ncc2scc(-c3cccc(NC(=O)[C@H]4CCCN4C(C)=O)c3)c2n1`
(A) 10.2 µM

(Q) Then this compound: `COc1nn(C(C)=O)cc1Nc1ncc2scc(-c3cccc(NC(=O)[C@@H](C)N4CCN(C)CC4)c3)c2n1`
(A) 4.61 µM

* * *

tested-target: Tyrosine-protein kinase JAK2 (Homo sapiens)
Sequence (O60674 whole entry): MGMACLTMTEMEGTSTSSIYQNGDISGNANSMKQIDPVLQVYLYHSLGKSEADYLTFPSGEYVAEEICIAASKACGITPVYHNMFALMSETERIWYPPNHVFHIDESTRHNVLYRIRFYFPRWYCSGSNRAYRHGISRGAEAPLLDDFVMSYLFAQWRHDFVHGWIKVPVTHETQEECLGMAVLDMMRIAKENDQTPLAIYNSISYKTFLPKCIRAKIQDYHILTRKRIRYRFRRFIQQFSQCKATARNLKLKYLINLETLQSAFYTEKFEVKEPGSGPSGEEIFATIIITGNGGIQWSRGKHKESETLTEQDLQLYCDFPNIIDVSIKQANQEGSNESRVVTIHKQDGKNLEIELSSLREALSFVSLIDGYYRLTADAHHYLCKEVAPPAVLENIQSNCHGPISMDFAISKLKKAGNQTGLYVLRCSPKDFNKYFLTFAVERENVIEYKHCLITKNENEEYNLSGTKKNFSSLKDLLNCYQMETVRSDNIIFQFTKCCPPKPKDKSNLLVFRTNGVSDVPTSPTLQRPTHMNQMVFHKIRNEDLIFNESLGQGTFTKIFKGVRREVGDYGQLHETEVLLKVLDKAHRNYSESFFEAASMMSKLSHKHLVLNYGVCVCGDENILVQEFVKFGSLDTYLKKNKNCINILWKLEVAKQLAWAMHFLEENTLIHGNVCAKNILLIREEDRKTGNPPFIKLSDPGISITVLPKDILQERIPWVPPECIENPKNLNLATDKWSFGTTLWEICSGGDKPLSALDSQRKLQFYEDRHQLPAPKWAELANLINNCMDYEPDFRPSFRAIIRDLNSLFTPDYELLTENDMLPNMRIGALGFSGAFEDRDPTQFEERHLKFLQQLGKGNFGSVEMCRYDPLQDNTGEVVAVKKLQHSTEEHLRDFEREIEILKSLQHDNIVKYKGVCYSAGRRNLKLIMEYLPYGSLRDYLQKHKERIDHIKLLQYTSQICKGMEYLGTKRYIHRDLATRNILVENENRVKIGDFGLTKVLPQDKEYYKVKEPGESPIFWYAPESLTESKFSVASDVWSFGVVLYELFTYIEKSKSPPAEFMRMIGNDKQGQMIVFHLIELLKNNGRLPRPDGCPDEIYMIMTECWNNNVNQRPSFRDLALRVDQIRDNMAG
protocol-text: Inhibition of N-terminal GST-tagged human recombinant JAK2 (804 to end residues) extracted from baculovirus infected in Sf9 cells using IGF1Rtide as substrate preincubated for 15 min followed by substrate addition and measured after 1 hr by ADP-Glo kinase assay
Each entry below carries its recorded pIC50.
// returns pIC50 (minus log10 of molar concentration), number only

(Q) Item `COc1nn(C)cc1Nc1ncc2scc(-c3cccc(NC(=O)[C@H]4CCCN4)c3)c2n1` has what recorded pIC50?
(A) 5.80

(Q) Then this compound: `COc1nn(C)cc1Nc1ncc2scc(-c3cccc(NC(=O)[C@@H](C)N4CCN(C)CC4)c3)c2n1`
(A) 5.45

(Q) Then this compound: `Cc1nn(C)cc1Nc1ncc2scc(-c3cccc(NC(=O)[C@@H](C)N4CCN(C)CC4)c3)c2n1`
(A) 5.56

(Q) Then this compound: `COc1nn(C)cc1Nc1ncc2scc(-c3cccc(NC(=O)[C@H]4CCCN4C(C)=O)c3)c2n1`
(A) 5.52

(Q) Then this compound: `COc1nn(C)cc1Nc1ncc2scc(-c3cccc(N)c3)c2n1`
(A) 6.81

(Q) Then this compound: `COc1nn(C)cc1Nc1ncc2scc(-c3cccc(NC(=O)[C@@H](C)N4CCN(CCO)CC4)c3)c2n1`
(A) 6.12

(Q) Then this compound: `COc1nn(C)cc1Nc1nccc(-c2c[nH]c3c(NC(=O)[C@@H](C)N4CCN(C)CC4)cccc23)n1`
(A) 6.21

(Q) Then this compound: `COc1nn(C)cc1Nc1ncc2scc(-c3cccc(NC(C)=O)c3)c2n1`
(A) 6.53

Origin of values: ChEMBL document CHEMBL6103581
